Tested on: MDR1-MDCK cell monolayers
protocol_details: Blood-brain-barrier (BBB) penetration potential via MDCK-MDR1 permeability assay
condition_info: A-B direction
So I've got a bunch of compounds here, and I need their MDCK-MDR1: % Recov A-B values.
Write the number in % without appending the unit.

Per the records, this compound ( CN(c1ccc(-c2cc3c(=O)n(C)ccc3s2)nn1)[C@H]1C[C@@H]2CC[C@@H](N2)[C@H]1F (single isomer, unassigned) [Compound 68B] ) has MDCK-MDR1: % Recov A-B equal to 92

Consider CN(c1ccc(-c2cc3ncccc3cc2O)nn1)[C@H]1C[C@@H]2CC(F)(F)[C@H](C1)N2 [Compound 46B] . Its measured MDCK-MDR1: % Recov A-B is 68

The compound identified as Cc1cc(=O)c2cc(-c3ccc(N(C)[C@@H]4C[C@H]5CC[C@H](N5)[C@@H]4F)nn3)c(O)cc2o1 [Compound 50A] registered its MDCK-MDR1: % Recov A-B at 85

For reference, reported MDCK-MDR1: % Recov A-B for CN(c1ccc(-c2ccc(-c3cn[nH]c3)cc2O)nn1)C1CC2COCC(N2)C1F (stereo not shown) [Compound 8B] stands at 84

For CN(c1ccc(-c2cc(F)c(-c3ccn(C)c(=O)c3)cc2O)nn1)[C@H]1C[C@@H]2CC(F)(F)[C@H](C1)N2 [Compound 22B] the compound record lists MDCK-MDR1: % Recov A-B as 88

Lab book: MDCK-MDR1: % Recov A-B of CN(c1ccc(-c2cc3cccnc3cc2O)nn1)[C@H]1C[C@@H]2CCC[C@@H](N2)[C@H]1F [Compound 41B] noted as 60

Measured MDCK-MDR1: % Recov A-B of CN(c1ccc(-c2ccc(-c3cnn(C(F)F)c3)cc2O)nn1)[C@@H]1C[C@H]2CCC[C@H](N2)[C@@H]1F [Compound 21A] : 34
